Tested on: Bacillus subtilis
runDescription: Disc diffusion antimicrobial assay, Bacillus subtilis
Format: cell-based
runParameters: Bacillus subtilis; 50 μg/disk, 6.5 mm disc; read-out: diameter of the clear zone of inhibition
Each entry below carries its reported zone of inhibition at 50 µg/disc.
Lab book: enter the figure in mm, no units written.

Some compounds with recorded zone of inhibition at 50 µg/disc:
compound: Nc1ncc(C2c3nc(N)[nH]c3CC(CNC(=O)c3cc(Br)c(Br)[nH]3)C2CNC(=O)c2cc(Br)c[nH]2)[nH]1 (centres unmarked) [Compound 5a, Bromoageliferin Acetate]
endpointName: zone of inhibition at 50 µg/disc
unitAbbreviation: mm
numericValue: 12
--
compound: Nc1ncc([C@@H]2[C@@H](CNC(=O)c3ccc[nH]3)[C@H](CNC(=O)c3cc(Br)c[nH]3)[C@H]2c2cnc(N)[nH]2)[nH]1 (relative stereo) [Compound 1a, Debromosceptrin Acetate]
endpointName: zone of inhibition at 50 µg/disc
unitAbbreviation: mm
numericValue: 11
--
compound: Nc1ncc([C@@H]2[C@@H](CNC(=O)c3cc(Br)c[nH]3)[C@H](CNC(=O)c3cc(Br)c[nH]3)[C@H]2c2cnc(N)[nH]2)[nH]1 (relative stereo) [Compound 2a, Sceptrin Acetate]
endpointName: zone of inhibition at 50 µg/disc
unitAbbreviation: mm
numericValue: 16

# zone of inhibition at 50 µg/disc of NC1=NC(=O)C(C2C(CNC(=O)c3ccc[nH]3)C(CNC(=O)c3cc(Br)c[nH]3)C2c2cnc(N)[nH]2)N1 (centres unmarked) [Compound 7a, Debromooxysceptrin Acetate] = 7

----------
System: Herpes Simplex Virus type 1 (HSV-1)
runDescription: Antiviral activity against HSV-1 determined by Dr. R. G. Hughes, Jr.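 Also: grades: +++ strong ++ moderate + light ± questionable - negative.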
Type: cell-based
runParameters: 100 μg/disk
endpointName: HSV-1 activity

molecule: Nc1ncc(C2c3nc(N)[nH]c3CC(CNC(=O)c3cc(Br)c(Br)[nH]3)C2CNC(=O)c2cc(Br)c(Br)[nH]2)[nH]1 (stereo not drawn) [Compound 6a, Dibromoageliferin Acetate]
assayTarget: Herpes Simplex Virus type 1 (HSV-1)
endpointName: HSV-1 activity
result: ±

molecule: Nc1ncc([C@@H]2[C@@H](CNC(=O)c3ccc[nH]3)[C@H](CNC(=O)c3cc(Br)c[nH]3)[C@H]2c2cnc(N)[nH]2)[nH]1 (relative stereo) [Compound 1a, Debromosceptrin Acetate]
assayTarget: Herpes Simplex Virus type 1 (HSV-1)
endpointName: HSV-1 activity
result: ±

molecule: Nc1ncc(C2c3nc(N)[nH]c3CC(CNC(=O)c3cc(Br)c(Br)[nH]3)C2CNC(=O)c2cc(Br)c[nH]2)[nH]1 (stereo not drawn) [Compound 5a, Bromoageliferin Acetate]
assayTarget: Herpes Simplex Virus type 1 (HSV-1)
endpointName: HSV-1 activity
result: ++

----------
System: vesicular stomatitis virus (VSV)
runDescription: microbe, parasite or virus in culture
Format: cell-based
runParameters: Vesicular stomatitis virus, in Primates, read-out: antiviral activity, VSV, zone diameter
endpointName: zone of inhibition at 100 µg/disc (mm)
Lab book: enter the figure in mm, no units written.

# zone of inhibition at 100 µg/disc of Nc1ncc([C@@H]2[C@@H](CNC(=O)c3ccc[nH]3)[C@H](CNC(=O)c3cc(Br)c[nH]3)[C@H]2c2cnc(N)[nH]2)[nH]1 (relative stereo) [Compound 1a, Debromosceptrin Acetate] = 7

# zone of inhibition at 100 µg/disc of Nc1ncc([C@@H]2[C@@H](CNC(=O)c3cc(Br)c(Br)[nH]3)[C@H](CNC(=O)c3cc(Br)c(Br)[nH]3)[C@H]2c2cnc(N)[nH]2)[nH]1 (relative stereo) [Compound 3a, Dibromosceptrin Acetate] = 10
